# target-desc: HIV integrase (Human immunodeficiency virus type 1 group M subtype B)
# test-description: HIV IN assay
# Assay type: biochemical, HIV-1
# cond: read-out: Biochemical Inhibition INST IC50; as relisted in Table 2
IC50 values by entry

Consider the reported IC50 for these molecules:
molecule	IC50
CCc1ccc(NC(=O)c2c(NCc3ccccc3)[nH]c(=O)n(O)c2=O)cc1 [Compound 10v]	> 100 µM
O=C(Nc1ccc(-c2ccccc2)cc1)c1c(NCc2ccccc2)[nH]c(=O)n(O)c1=O [Compound 10o]	> 100 µM

Next item in the queue.
Please indicate IC50 recorded for O=C(Nc1ccc(-c2ccccc2)cc1)c1c(NCc2ccc(-c3ccccc3)cc2)[nH]c(=O)n(O)c1=O [Compound 10k]
> 100 µM
